- target or system: DNA polymerase β (Bos taurus, UniProt Q27958)
- method notes: [methyl-3H]TTP incorporation into activated DNA, DE81 paper disc
endpoint name: IC50 (µM)
The reply should be a number in µM, with the unit left off.

compound: Nc1ccn([C@@H]2O[C@H](COP(=O)(O)OP(=O)(O)OP(=O)(O)O)[C@@H](O)C2(F)F)c(=O)n1 [dFdCTP]
IC50 / µM: 450

Then there is this compound:
Asked: Returns the measured IC50 for the input compound. Input: Nc1ccn([C@H]2CC[C@@H](COP(=O)(O)OP(=O)(O)OP(=O)(O)O)O2)c(=O)n1 [ddCTP]
Given back: 240
